System: Liver
Assay: Intrinsic clearance in CD1 mouse liver microsomes after 0.5 to 4 hrs by UPLC-MS analysis
Type: ADME, Microsome
Property: Intrinsic clearance (CLint)
A bare number is not enough; add the unit after it.

CCOC(=O)c1c(-c2ccc3c(c2)OCO3)[nH]c2cc(OC)ccc2c1=O 12 µL/min/mg
CCOC(=O)c1c(-c2cccc(Br)c2)[nH]c2cc(OC)c(F)cc2c1=O 2.7 µL/min/mg

Read the next record carefully.
Request: I have this compound here, `CCOC(=O)c1c(-c2cccc(Oc3ccccc3)c2)[nH]c2cc(OC)ccc2c1=O` , and I need its recorded Intrinsic clearance (CLint).
Result: 35 µL/min/mg

###

Assay: Cmax in CD1 mouse at 50 mg/kg, po administered as single dose
Format: ADME, organism-based
Parameters: dose 50 mg/kg, route oral
Conditions: in vivo
Cmax: recorded values
Number only, in µM; omit the unit.

Below: 2 molecules and their reported Cmax.
CCOC(=O)c1c(-c2cccc(Br)c2)[nH]c2cc(OC)c(F)cc2c1=O 31
CCOC(=O)c1c(-c2cccc(Cl)c2)[nH]c2cc(OC)c(F)cc2c1=O 38

Read the next record carefully.
Request: I have this molecule here, `CCOC(=O)c1c(-c2cc(F)cc(OC)c2)[nH]c2cc(OC)c(F)cc2c1=O` , and I need its recorded Cmax.
Result: 0.71

###

Experiment: Cmax in CD1 mouse at 200 mg/kg, po administered as single dose
Assay type: ADME, organism-based
Set-up: dose 200 mg/kg, route oral
Details: in vivo
Property: Cmax (µM)
Number only, in µM; omit the unit.

Below: 3 molecules and their reported Cmax.
CCOC(=O)c1c(-c2cccc(Br)c2)[nH]c2cc(OC)c(F)cc2c1=O 39
CCCOc1cccc(-c2[nH]c3cc(OC)ccc3c(=O)c2C(=O)OCC)c1 1.8
CCOC(=O)c1c(-c2ccc3c(c2)OCO3)[nH]c2cc(OC)ccc2c1=O 5

Request: I have this molecule here, `CCOC(=O)c1c(-c2cccc(Oc3ccccc3)c2)[nH]c2cc(OC)ccc2c1=O` , and I need its recorded Cmax.
Result: 0.4

###

System: Liver
Test: Intrinsic clearance in CD1 mouse liver microsomes after 0.5 to 4 hrs by UPLC-MS analysis
Format: ADME, Microsome
Property: Intrinsic clearance (CLint) (µL/min/mg)
Number only, in µL/min/mg; omit the unit.

Below: 4 molecules and their reported Intrinsic clearance (CLint).
CCOC(=O)c1c(-c2cccc(-c3ccccc3)c2)[nH]c2cc(OC)ccc2c1=O 5.7
CCOC(=O)c1c(-c2cccc(OCC)c2)[nH]c2cc(OC)ccc2c1=O 12
CCOC(=O)c1c(-c2cccc(OC)c2)[nH]c2cc(OC)ccc2c1=O 7.9
CCOC(=O)c1c(-c2cccc(Oc3ccccc3)c2)[nH]c2cc(OC)c(F)cc2c1=O 16

Read the next record carefully.
Request: I have this molecule here, `CCOC(=O)c1c(-c2cccc(Cl)c2)[nH]c2cc(OC)ccc2c1=O` , and I need its recorded Intrinsic clearance (CLint).
Result: 16

###

Experiment: Permeability of the compound at pH 4.0 by PAMPA
Type: ADME
Property: permeability (×10⁻⁶ cm/s)
Number only, in ×10⁻⁶ cm/s; omit the unit.

Request: I have this compound here, `COc1cc2[nH]c(-c3cccc(Oc4ccccc4)c3)c(C(=O)OCCCN3CCOCC3)c(=O)c2cc1F` , and I need its recorded permeability.
Result: 30
